A set of compounds tested on kinase enzymes (Homo sapiens, UniProt P42336), with measured pKd:
Answers are plain numbers, as −log10 of the molar value.

>  <compound>
CN(Cc1cc(F)cc(F)c1)c1cc(C(=O)N2CCNC(C(F)(F)F)C2)cc2ncc(N3CCOCC3)nc12 (single isomer, unassigned) [Compound 319a]

>  <pKd>
5.04

$$$$
>  <compound>
CC(Oc1cc(F)cc(F)c1)c1cc(C(=O)N(C)C)cc2ncc(C3=CCOCC3)nc12 (single isomer, unassigned) [Compound 403a]

>  <pKd>
5.83

$$$$
>  <compound>
O=C(c1cc(C2CCCN2c2cc(F)cc(F)c2)c2nc(N3CCOCC3)cnc2c1)N1CC2(C1)CS(=O)(=O)C2 (stereo not shown) [Compound 34]

>  <pKd>
7.30

$$$$
>  <compound>
CC(Nc1ccc(F)c(F)c1)c1cc(CO)cc2ncc(N3CCOCC3)nc12 (stereo not shown) [Compound 303]

>  <pKd>
5.45

$$$$
>  <compound>
CC(Nc1cc(F)c(F)c(F)c1)c1cc(C(=O)NCC(C)(C)O)cc2ncc(N3CCOCC3)nc12 (single isomer, unassigned) [Compound 292a]

>  <pKd>
5.55

$$$$
>  <compound>
CC(Oc1ccc(F)c(F)c1)c1cc(C(=O)N2CCN3CCC[C@@H]3C2)cc2ncc(N3CCOCC3)nc12 (mixture of isomers) [Compound 375]

>  <pKd>
4.73

$$$$
>  <compound>
O=C(NCCO)c1cc(N2CCCC2c2cc(F)cc(F)c2)c2nc(N3CCOCC3)cnc2c1 (single isomer, unassigned) [Compound 245]

>  <pKd>
5.06

$$$$
>  <compound>
CCN1CCN(C(=O)c2cc(C(C)Oc3cccc(F)c3)c3nc(N4CCOCC4)cnc3c2)CC1 (stereo not shown) [Compound 90]

>  <pKd>
5.04

$$$$

For every record below, what is its pKd?
1. CC(Nc1cc(F)cc(F)c1)c1cc(C(=O)NCCOCCN)cc2ncc(N3CCOCC3)nc12 (stereo not shown) [Compound 149]
2. CN(C)C(=O)c1cc(N2CCC2c2ccc(F)cc2)c2nc(N3CCOCC3)cnc2c1 (single isomer, unassigned) [Compound 397b]
3. CC(c1cc(C(=O)N(C)C)cc2ncc(N3CCOCC3)nc12)N(C)c1cccc(Cl)c1 (single isomer, unassigned) [Compound 140]

[5.53, 5.73, 4.83]

====

A set of compounds tested on kinase enzymes (Homo sapiens), with measured Kd:
One number for each entry, in µM.

Some solved cases for reference:
>  <compound>
CC(Oc1ccc(Cl)c(F)c1)c1cc(C(=O)N(C)CCN(C)C)cc2ncc(N3CCOCC3)nc12 (single isomer, unassigned) [Compound 313a]

>  <target_or_system>
kinase enzymes (Homo sapiens)

>  <quantity>
Kd

>  <test_value>
26.3

$$$$
>  <compound>
COC1CN(Cc2cc(C(C)Nc3cc(F)cc(F)c3)c3nc(N4CCOCC4)cnc3c2)CC1OC (single isomer, unassigned) [Compound 207]

>  <target_or_system>
kinase enzymes (Homo sapiens)

>  <quantity>
Kd

>  <test_value>
16.2

$$$$

Here is another compound to look at.
Name the recorded Kd of the compound listed here: CC(Oc1cc(F)cc(F)c1)c1cc(-c2cnc[nH]2)cc2ncc(N3CCOCC3)nc12 (single isomer, unassigned) 15.8

====

- Test system: Akt phosphorylated at Ser473 in PC-3 cells
- assay_overview: Cellular assay: phosphorylation of Akt at Ser473 in PC-3 cells (MSD ELISA)
- Assay type: cell-based
- condition_notes: PC-3 cells, 60 min compound incubation, MSD ELISA; read-out: IC50 pAkt_S473
Would you mind telling me the reported pIC50 of each entry?
Numbers only, as −log10 of the molar value.

Some solved cases for reference:
>  <compound>
CN(C)C(=O)c1cc([C@H]2CCCN2c2cc(F)cc(F)c2)c2nc(N3CCOCC3)cnc2c1

>  <target_or_system>
Akt phosphorylated at Ser473 in PC-3 cells

>  <pIC50>
8.70

$$$$
>  <compound>
CN[C@H]1CCN(C(=O)c2cc(C(C)Oc3ccc(F)c(F)c3)c3nc(N4CCOCC4)cnc3c2)C1 (single isomer, unassigned) [Compound 370a]

>  <target_or_system>
Akt phosphorylated at Ser473 in PC-3 cells

>  <pIC50>
6.97

$$$$

Here is another compound to look at.
Name the recorded pIC50 of the compound listed here: COCCNC(=O)c1cc(C(C)Nc2cc(F)cc(F)c2)c2nc(N3CCOCC3)cnc2c1 (single isomer, unassigned) [Compound 203] 7.01

====

- target_or_system: PI3Kβ (Homo sapiens)
- Construct: purchased DiscoveRx Corporation, San Diego (contract service, KINOMEscan)
- Sequence (P42338 whole entry): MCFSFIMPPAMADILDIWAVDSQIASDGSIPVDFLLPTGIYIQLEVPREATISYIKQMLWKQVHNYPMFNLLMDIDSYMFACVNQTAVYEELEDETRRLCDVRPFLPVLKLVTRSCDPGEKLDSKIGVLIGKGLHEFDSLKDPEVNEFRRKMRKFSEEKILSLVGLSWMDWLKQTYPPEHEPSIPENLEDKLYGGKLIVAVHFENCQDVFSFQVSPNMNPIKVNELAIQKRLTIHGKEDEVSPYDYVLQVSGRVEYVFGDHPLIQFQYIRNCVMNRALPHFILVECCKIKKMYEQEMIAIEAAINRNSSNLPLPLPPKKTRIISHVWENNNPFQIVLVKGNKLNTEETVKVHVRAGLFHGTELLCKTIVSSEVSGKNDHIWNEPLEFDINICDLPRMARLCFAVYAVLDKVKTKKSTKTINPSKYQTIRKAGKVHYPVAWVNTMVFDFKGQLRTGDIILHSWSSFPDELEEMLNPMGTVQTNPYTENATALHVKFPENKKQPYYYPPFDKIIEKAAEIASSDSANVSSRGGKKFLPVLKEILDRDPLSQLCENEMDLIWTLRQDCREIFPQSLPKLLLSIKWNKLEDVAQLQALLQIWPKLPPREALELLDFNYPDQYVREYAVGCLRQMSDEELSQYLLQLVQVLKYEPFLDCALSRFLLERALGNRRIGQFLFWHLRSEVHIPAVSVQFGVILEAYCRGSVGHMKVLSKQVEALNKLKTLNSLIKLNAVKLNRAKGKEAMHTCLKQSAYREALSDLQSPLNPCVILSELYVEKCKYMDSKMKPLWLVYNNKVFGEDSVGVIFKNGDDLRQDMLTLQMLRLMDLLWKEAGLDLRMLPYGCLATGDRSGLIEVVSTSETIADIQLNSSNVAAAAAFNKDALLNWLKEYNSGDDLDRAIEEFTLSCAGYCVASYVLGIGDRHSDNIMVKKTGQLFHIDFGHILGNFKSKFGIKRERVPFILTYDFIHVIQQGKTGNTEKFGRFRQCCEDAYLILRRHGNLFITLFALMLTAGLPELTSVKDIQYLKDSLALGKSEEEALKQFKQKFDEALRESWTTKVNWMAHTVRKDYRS
- assay_overview: Enzyme binding assay (KINOMEscan, DiscoveRx)
- condition_notes: PIK3Cβ_h, read-out: Kd PIK3Cβ_h
quantity: Kd (nM)
Numbers only, in nM.

>  <compound>
CCN1CCN(C(=O)c2cc(C(C)Nc3cccc(F)c3)c3nc(N4CCOCC4)cnc3c2)CC1 (single isomer, unassigned) [Compound 114]

>  <Kd, nM>
1

$$$$
>  <compound>
Cc1cc(F)cc(N2CCCC2c2cc(C(=O)N(C)C)cc3ncc(N4CCOCC4)nc23)c1 (stereo not drawn)

>  <Kd, nM>
2

$$$$
>  <compound>
CC(Nc1cccc(F)c1)c1cc(C(=O)N2CCC[C@H]2CO)cc2ncc(N3CCOCC3)nc12 (single isomer, unassigned) [Compound 116]

>  <Kd, nM>
2880

$$$$
>  <compound>
CC(Oc1ccc(F)c(F)c1)c1cc(C(=O)NCCN(C)C)cc2ncc(N3CCOCC3)nc12 (single isomer, unassigned) [Compound 299a]

>  <Kd, nM>
1

$$$$
>  <compound>
COC(=O)c1cc(C(C)Nc2cccc(F)c2)c2nc(N3CCOCC3)cnc2c1 (single isomer, unassigned) [Compound 262b]

>  <Kd, nM>
11500

$$$$

Here is another compound to look at.
Provide Kd, recorded with PI3Kβ (Homo sapiens), of CNCCNC(=O)c1cc(C2CCCN2c2cc(F)cc(F)c2)c2nc(N3CCOCC3)cnc2c1 (single isomer, unassigned) [Compound 17] 0.1

====

A set of compounds tested on kinase enzymes (Homo sapiens), with measured pKd:
Answers are plain numbers, as −log10 of the molar value.

>  <compound>
CC(Nc1ccc(F)c(F)c1)c1cc(C(=O)N2CCN3CCC[C@@H]3C2)cc2ncc(N3CCOCC3)nc12 (single isomer, unassigned) [Compound 347b]

>  <test_value>
4.59

$$$$

For every record below, what is its pKd?
1. CNCCNC(=O)c1cc(C(C)Nc2cccc(F)c2)c2nc(N3CCOCC3)cnc2c1 (single isomer, unassigned) [Compound 139]
2. OC[C@@H]1CCCN1Cc1cc(C2CCCN2c2cc(F)cc(F)c2)c2nc(N3CCOCC3)cnc2c1 (single isomer, unassigned)
3. CC(C)NCCNC(=O)c1cc(C(C)Oc2cccc(F)c2)c2nc(N3CCOCC3)cnc2c1 (single isomer, unassigned) [Compound 314a]
4. CC(Oc1cc(F)cc(F)c1)c1cc(C(=O)N(C)C)cc2ncc(N3CCOCC3)nc12 (centres unmarked)
5. CC(Nc1ccc(F)c(F)c1)c1cc(C(=O)N(C)CCN(C)C)cc2ncc(N3CCOCC3)nc12 (single isomer, unassigned) [Compound 349a]
6. CC(Oc1cc(F)cc(F)c1)c1cc(C(=O)N(C)C)cc2ncc(C3=CCOCC3)nc12 (single isomer, unassigned) [Compound 403a]
7. CC(Nc1cccc(F)c1)c1cc(C(=O)N(C)C)cc2ncc(N3CCOCC3)nc12 (centres unmarked)
8. CCN1CCN(C(=O)c2cc(C(C)Nc3cccc(F)c3)c3nc(N4CCOCC4)cnc3c2)CC1 (single isomer, unassigned)

1. 5.46
2. 6.19
3. 4.52
4. 4.67
5. 5.37
6. 5.05
7. 5.78
8. 5.16

For every record below, what is its pKd?
1. CC(Nc1cc(F)cc(F)c1)c1cc(C(=O)N(C)CCO)cc2ncc(N3CCOCC3)nc12 (centres unmarked)
2. Cc1ccc(NC(C)c2cc(C(=O)NCCN(C)C)cc3ncc(N4CCOCC4)nc23)cc1F (single isomer, unassigned) [Compound 407b]
3. CC(Nc1ccc(F)c(F)c1)c1cc(C(=O)N(C)CCN(C)C)cc2ncc(N3CCOCC3)nc12 (single isomer, unassigned) [Compound 349b]
4. CC(Nc1cccc(F)c1)c1cc(CO)cc2ncc(N3CCOCC3)nc12 (centres unmarked)
5. CC(Nc1ccc(F)c(F)c1)c1cc(C(=O)N2CCN3CCC[C@H]3C2)cc2ncc(N3CCOCC3)nc12 (some centres unmarked) [Compound 287]

5.73
5.42
4.59
5.76
4.58

For every record below, what is its pKd?
1. CNCCNC(=O)c1cc(C(C)N(C)c2cccc(F)c2)c2nc(N3CCOCC3)cnc2c1 (centres unmarked)
2. CC(Oc1cccc(F)c1)c1cc(CO)cc2ncc(N3CCOCC3)nc12 (single isomer, unassigned) [Compound 89]
3. C[C@H](CO)NCc1cc(F)cc(N2CCCC2c2cc(C(=O)N(C)C)cc3ncc(N4CCOCC4)nc23)c1 (mixture of isomers)

6.62
5.02
4.83

For every record below, what is its pKd?
1. CN(C)C(=O)c1cc(N2CCCC2c2cc(F)cc(F)c2)c2nc(N3CCOCC3)cnc2c1 (centres unmarked) [Compound 395]
2. CN[C@H]1CCN(C(=O)c2cc(C(C)Nc3ccc(F)c(F)c3)c3nc(N4CCOCC4)cnc3c2)C1 (single isomer, unassigned) [Compound 365a]

[4.85, 4.99]

Name the recorded pKd of the compound listed here: CC(C)NCCNC(=O)c1cc(C(C)Nc2ccc(F)c(F)c2)c2nc(N3CCOCC3)cnc2c1 (single isomer, unassigned) [Compound 364a] 5.16
